Answer each item with its documented switch fluorescence ratio.
test system: ATP; test: switch fluorescence ratio, 500 uM ATP over buffer (Cy3 cluster intensity, sum of 5 cycles each) (fold (ratio)); higher = stronger signal-on switching upon ATP binding; sequences stand for … in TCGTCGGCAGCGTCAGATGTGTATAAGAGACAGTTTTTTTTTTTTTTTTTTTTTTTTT…TC; conditions: aptamer strand: ATP DNA aptamer (quencher-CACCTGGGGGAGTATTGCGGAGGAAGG + anchor), 100 nM annealed; ATP concentration: 500 uM;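 further: ATP exposure 15 min at 22 °C before imaging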
In your answer, state the number alone without any accompanying words.

So what's the measured switch fluorescence ratio for this one? "GGGATTCAAC" 1.02

So what's the measured switch fluorescence ratio for this one? "CGGTGATCGG" 0.996

So what's the measured switch fluorescence ratio for this one? "ATGATATGGT" 0.983

So what's the measured switch fluorescence ratio for this one? "CAGGTGTGGC" 1.11

So what's the measured switch fluorescence ratio for this one? "TTTGGTAGTT" 0.987

So what's the measured switch fluorescence ratio for this one? "TATCCGTGGG" 0.973

So what's the measured switch fluorescence ratio for this one? "TTCCTCTGTT" 1.37

So what's the measured switch fluorescence ratio for this one? "TAATGCCTGC" 1

So what's the measured switch fluorescence ratio for this one? "TTCAAGGGAG" 0.995

So what's the measured switch fluorescence ratio for this one? "TACGGTAGCC" 1.04

So what's the measured switch fluorescence ratio for this one? "TCATACGGGG" 1.01

So what's the measured switch fluorescence ratio for this one? "GGCTTGAACA" 1.01

So what's the measured switch fluorescence ratio for this one? "TAAGCGGTTG" 0.989

So what's the measured switch fluorescence ratio for this one? "TATGGGATGT" 0.988

So what's the measured switch fluorescence ratio for this one? "TGCTCATTCG" 1.01

So what's the measured switch fluorescence ratio for this one? "TTAATTTTTG" 0.996

So what's the measured switch fluorescence ratio for this one? "TGATCGGGGT" 1.02

So what's the measured switch fluorescence ratio for this one? "CTTTGCCTGG" 0.98

So what's the measured switch fluorescence ratio for this one? "TATTGTTTTT" 1.01

So what's the measured switch fluorescence ratio for this one? "AGTAATATAT" 0.976

---

Answer each item with its documented switch fluorescence ratio.
test system: ATP; assay: switch fluorescence ratio, 500 uM ATP over buffer (Cy3 cluster intensity, sum of 5 cycles each) (fold (ratio)); higher = stronger signal-on switching upon ATP binding; sequences stand for … in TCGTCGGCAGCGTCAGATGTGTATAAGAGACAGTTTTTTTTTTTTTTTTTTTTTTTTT…TC; conditions: aptamer strand: ATP DNA aptamer (quencher-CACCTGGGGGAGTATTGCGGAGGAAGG + anchor), 100 nM annealed; ATP concentration: 500 uM;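 further: ATP exposure 15 min at 22 °C before imaging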
In your answer, state the number alone without any accompanying words.

So what's the measured switch fluorescence ratio for this one? "TATTCGTGGG" 0.956

So what's the measured switch fluorescence ratio for this one? "TCGTAAGAAA" 1.01

So what's the measured switch fluorescence ratio for this one? "CGTTAAATAA" 1

So what's the measured switch fluorescence ratio for this one? "TTTGATAGAT" 0.977

So what's the measured switch fluorescence ratio for this one? "TTGGAGGCTC" 1.03

So what's the measured switch fluorescence ratio for this one? "AACGCTATGT" 1.05

So what's the measured switch fluorescence ratio for this one? "TGGGAGGGAG" 0.987

So what's the measured switch fluorescence ratio for this one? "GATACTATTT" 0.98

So what's the measured switch fluorescence ratio for this one? "CTGGATCCTT" 1.05

So what's the measured switch fluorescence ratio for this one? "TGCAGGCAAG" 1.01

So what's the measured switch fluorescence ratio for this one? "GAGATAGGGA" 1.01

So what's the measured switch fluorescence ratio for this one? "AATTGGGGTA" 0.989

So what's the measured switch fluorescence ratio for this one? "TATTAGGGGG" 0.984

So what's the measured switch fluorescence ratio for this one? "TAAGAAAGGG" 0.957

So what's the measured switch fluorescence ratio for this one? "TGGTTGGTCA" 0.992

So what's the measured switch fluorescence ratio for this one? "ATTCTATCGT" 1.01

So what's the measured switch fluorescence ratio for this one? "GGTGCGCCTT" 0.958

So what's the measured switch fluorescence ratio for this one? "CGTAACCTTA" 1.05

So what's the measured switch fluorescence ratio for this one? "CCAGGTAGCA" 1.27

So what's the measured switch fluorescence ratio for this one? "GCTTGAGTTA" 0.985

So what's the measured switch fluorescence ratio for this one? "ATATTATTAC" 1.06

So what's the measured switch fluorescence ratio for this one? "AGGTTAGGTG" 1.42

So what's the measured switch fluorescence ratio for this one? "ACAAAGGGAC" 1.06

So what's the measured switch fluorescence ratio for this one? "GTGTGCTGTG" 1.01

So what's the measured switch fluorescence ratio for this one? "TTTCTTTTTA" 0.979

So what's the measured switch fluorescence ratio for this one? "GTTTAGGTTT" 1

So what's the measured switch fluorescence ratio for this one? "CATTGGGTGT" 1.03

So what's the measured switch fluorescence ratio for this one? "AAAAGGTTTC" 1.02

So what's the measured switch fluorescence ratio for this one? "TTAGCGGGGG" 1.03

So what's the measured switch fluorescence ratio for this one? "GCTTCAGGTC" 1.05

So what's the measured switch fluorescence ratio for this one? "GGGATGTTTT" 0.991

So what's the measured switch fluorescence ratio for this one? "TAATCAGTGC" 0.998

So what's the measured switch fluorescence ratio for this one? "TCTTGTTTTG" 0.994

So what's the measured switch fluorescence ratio for this one? "GGTTTGACGG" 1.01

So what's the measured switch fluorescence ratio for this one? "CGGTAATGTG" 1.03

So what's the measured switch fluorescence ratio for this one? "TTTAGGGTCG" 1.01

So what's the measured switch fluorescence ratio for this one? "GAGTATGAAG" 1.01

So what's the measured switch fluorescence ratio for this one? "AAACACTAAG" 1.08

So what's the measured switch fluorescence ratio for this one? "TCGGGATTTA" 1.02

So what's the measured switch fluorescence ratio for this one? "AATTTGGGTG" 1.04

So what's the measured switch fluorescence ratio for this one? "CGTGGAAGGA" 0.997

So what's the measured switch fluorescence ratio for this one? "TTTGATAACG" 0.987

So what's the measured switch fluorescence ratio for this one? "CGGTGCGGGT" 0.992

---

test system: ATP; assay: switch fluorescence ratio, 500 uM ATP over buffer (Cy3 cluster intensity, sum of 5 cycles each) (fold (ratio)); higher = stronger signal-on switching upon ATP binding; sequences stand for … in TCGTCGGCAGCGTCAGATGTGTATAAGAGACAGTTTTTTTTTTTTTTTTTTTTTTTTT…TC; settings: aptamer strand: ATP DNA aptamer (quencher-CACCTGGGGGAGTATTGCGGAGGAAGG + anchor), 100 nM annealed; ATP concentration: 500 uM;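 further: ATP exposure 15 min at 22 °C before imaging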
measurement type: switch fluorescence ratio
In your answer, state the number alone without any accompanying words.

Give switch fluorescence ratio (ATP) of the following sequence: "AAGATCGGGG" 0.972

Give switch fluorescence ratio (ATP) of the following sequence: "TTAGGGTTTC" 0.978

Give switch fluorescence ratio (ATP) of the following sequence: "GGGGCATGGG" 0.995

Give switch fluorescence ratio (ATP) of the following sequence: "CGGGTTTTAT" 1.01

Give switch fluorescence ratio (ATP) of the following sequence: "GATACCTATG" 1.03

Give switch fluorescence ratio (ATP) of the following sequence: "TTGTAACGGA" 1.01

Give switch fluorescence ratio (ATP) of the following sequence: "AGGTGCATAC" 1.45

Give switch fluorescence ratio (ATP) of the following sequence: "CCTATGCTTC" 3.38

Give switch fluorescence ratio (ATP) of the following sequence: "TTTGCAGGGA" 1.06

Give switch fluorescence ratio (ATP) of the following sequence: "TTATTTGAGT" 1.06

---

Answer each item with its documented switch fluorescence ratio.
test system: ATP; assay: switch fluorescence ratio, 500 uM ATP over buffer (Cy3 cluster intensity, sum of 5 cycles each) (fold (ratio)); higher = stronger signal-on switching upon ATP binding; sequences stand for … in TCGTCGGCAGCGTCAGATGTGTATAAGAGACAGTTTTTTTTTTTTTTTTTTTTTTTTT…TC; details: aptamer strand: ATP DNA aptamer (quencher-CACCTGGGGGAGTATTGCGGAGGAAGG + anchor), 100 nM annealed; ATP concentration: 500 uM;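 further: ATP exposure 15 min at 22 °C before imaging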
In your answer, state the number alone without any accompanying words.

So what's the measured switch fluorescence ratio for this one? "TTTTTGCCGA" 1.01

So what's the measured switch fluorescence ratio for this one? "ATGAAAAATT" 1.01

So what's the measured switch fluorescence ratio for this one? "GATAGATCAG" 0.993

So what's the measured switch fluorescence ratio for this one? "GCGGTAACGT" 0.976

So what's the measured switch fluorescence ratio for this one? "TCAGGGTTGC" 1.03

So what's the measured switch fluorescence ratio for this one? "TTTGGAGATA" 1.03

So what's the measured switch fluorescence ratio for this one? "GTATTGTGGT" 0.967

So what's the measured switch fluorescence ratio for this one? "AGTGGGGTTA" 0.999

So what's the measured switch fluorescence ratio for this one? "TTGTCAGTTT" 1.03

So what's the measured switch fluorescence ratio for this one? "CATGCAGGGT" 1.04

So what's the measured switch fluorescence ratio for this one? "TTGAGCTGTT" 0.981

So what's the measured switch fluorescence ratio for this one? "TGACGCGGGG" 1.05

So what's the measured switch fluorescence ratio for this one? "TCGGCGGACA" 1

So what's the measured switch fluorescence ratio for this one? "GAGTAAAAAG" 0.99

So what's the measured switch fluorescence ratio for this one? "CTGTGCAACT" 1.05

So what's the measured switch fluorescence ratio for this one? "GATTTCGATG" 1.01

So what's the measured switch fluorescence ratio for this one? "AGGTGGTCTG" 0.988

So what's the measured switch fluorescence ratio for this one? "CATTTCAAGG" 1

So what's the measured switch fluorescence ratio for this one? "ACTCGTTAAA" 0.978

So what's the measured switch fluorescence ratio for this one? "ACGGTTTTTG" 0.993
